Listed next: entries and their corresponding growth inhibition.
- assay overview: NCI Yeast Anticancer Drug Screen. Data for the sgs1 mgt1 strain (AID 161);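 further: 0% = growth of cultures given vehicle only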
- condition set: S. cerevisiae sgs1 mgt1 strain, at 50.0 µM, active compounds read high
About 79,000 compounds went through this panel and 15% of them were active in at least one assay; those are over-represented in the sample as a whole.
The reply should be a number in %, with the unit left off.

Examples from the recorded data:
{"molecule": "NC1=NC(=O)C(CC(=O)Nc2ccc([N+](=O)[O-])cc2[N+](=O)[O-])S1 (stereo not drawn)", "measurement unit": "%", "growth inhibition": 2.3}
{"molecule": "O=c1oc2cc(O)ccc2cc1-c1nc2ccccc2o1", "measurement unit": "%", "growth inhibition": -31.2}
{"molecule": "Nn1c(SSSSc2nnc(-c3ccccc3)n2N)nnc1-c1ccccc1", "measurement unit": "%", "growth inhibition": -27.2}

Now for another entry.
So what does the record say about growth inhibition for `CC(C)(C)c1ccc(OCCCl)c(Cl)c1` ? 33.7

Values were extracted from PubChem BioAssay (NCI).
